// provenance: the RNAGym collection of RNA variant scans (doi:10.7554/elife.90254)

B1: LINE1-full (parent)
chain: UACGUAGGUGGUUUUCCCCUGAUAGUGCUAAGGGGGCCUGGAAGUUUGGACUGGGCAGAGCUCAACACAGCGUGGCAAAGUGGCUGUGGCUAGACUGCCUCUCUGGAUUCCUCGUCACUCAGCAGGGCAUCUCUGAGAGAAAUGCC

Variants of: B1
Assay: self-cleavage, relative activity (ratio to wild type); higher = more cleavage; in vitro, sequencing; the parent is a self-cleaving ribozyme
MEASURED ENDPOINT: self-cleavage

Below: 5 variants and their reported self-cleavage.
UACGUAGGUGGUUUUCCCCUGAUAGUGCUAAGGGGGCCUGGAAGCUUGGACUGGGCAGAGCUCAACACAGCGUGGCAAAGUGGCUGUGGCUAGACUGCCUCUCUGGAUUCCUCGUCACUCAGCAGGGCAUCUCCGAGAGAAAUGCC [U45C U134C]
1.47
UACGUAGGUGGUUUUCCCCUGAUAGUGCUAAGGGGGCCUGGAAGUUUGGACUGGGCAGACCUCAACACAGCGUGGCAAAGUGGCUGUGGCUAGACUGCCUCUCUGGAUUCCUCGUCACUCAGCAGGGCAUCUCUGAGAGAAAUGCC [G60C]
0.05
UUCGUAGGUGGUUUUCCCCUGAUAGUGCUAAGGGGGCCUGGAAGUUUGGACUGGGCAGAGCUCAACUCAGCGUGGCAAAGUGGCUGUGGCUAGACUGCCUCUCUGGAUUCCUCGUCACUCAGCAGGGCAUCUCUGAGAGAAAUGCC [A2U A67U]
0.05
UACGUAGGUGGCUUUCCCCUGAUAGUGCUAAGGGGGCCUGGAAGUUUGGACUGGGCAGAGCUCAACACAGCGUGGCAAAGUGGCUGUGGCUAGACUGCCUCUCUGGAUUCCUAGUCACUCAGCAGGGCAUCUCUGAGAGAAAUGCC [U12C C113A]
0.64
UACGUAGGUGGUUCUCCCCUGAUAGUGCUAAGGGGGCCUGGAAGUUUGGACUGGGCAGAGCUCAACACAGCGUGGCAAAGUGGCUGUGGCUAGAUUGCCUCUCUGGAUUCCUCGUCACUCAGCAGGGCAUCUCUGAGAGAAAUGCC [U14C C95U]
0.21

Then there is this variant:
I am curious: what self-cleavage value has been reported for UACGUAGGUGGUUUUCCCCUGAUAGUGCUAAGGGGGCCUGGAAGUUUGGACUGGGCAGAGCUCAACACAGCGUGGCAAAGUGGCUGUGUCUAGACUGCCUCUCUGGGUUCCUCGUCACUCAGCAGGGCAUCUCUGAGAGAAAUGCC [G89U A107G] ?
0.04
